System: T47D cells
Assay: Proliferation assay T47D (Alamar Blue, 144 h)
Format: cell-based
Settings: Homo sapiens, breast ductal carcinoma, read-out: proliferation assays
Assay endpoint: pEC50
In simple prose, pEC50 is minus the logarithm base ten of a concentration in moles per litre.

> print(dat)
                              record.smiles  assay.result
1  CCCOc1ccccc1S(=O)(=O)NC(=O)c1cc2ccc(N(C)C)cc2o1          6.71

Measured pEC50, `CCOc1ccccc1S(=O)(=O)NC(=O)c1cc2ccc(N(C)C)cc2o1` : 6.77

====

Tested on: ZR-75-1 cells
Assay: Proliferation assay ZR-75-1 (Alamar Blue, 144 h)
Format: cell-based
Conditions: Homo sapiens, ZR-75-1, 144 h, arithmetic mean, read-out: ZR75-1 proliferation assay, EC50 [M] (arithmetic mean)
Assay endpoint: EC50 (M)
The answer is to be given in M; state only the numeric part.

Measured EC50, `CN(C)c1ccc2cc(C(=O)NS(=O)(=O)c3c(F)cccc3OCC3CC3)oc2c1` : 5.7e-06

Measured EC50, CC(C)c1ccc(OCC2CC2(F)F)c(S(=O)(=O)NC(=O)c2cc3ccc(N(C)C)cc3o2)c1 (racemic) : 5.59e-08

Measured EC50, `COCCN(C)c1ccc2cc(C(=O)NS(=O)(=O)c3ccccc3-c3ccccc3)oc2c1` : 3.41e-08

Measured EC50, `CN(C)c1ccc2cc(C(=O)NS(=O)(=O)c3ccccc3Oc3ccccc3)oc2c1` : 4e-07
